Assay: chemical genetic growth profiling, strain panel (AID 1159580);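 also: tested at 20 µM; growth read once vehicle control cultures reached saturation at 30 °C; 1 = growth at the plate median or of vehicle wells; lower values mean less growth of the strain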
Details: S. cerevisiae deletion strains, growth OD, locus YDL134C, strain PPH21, hits give low values
The whole screen tested about 5,500 compounds, of which about 2,000 (36%) were called active. Not shown: some 18% with an inconclusive outcome. Some of the results follow.
assay-readout: normalized growth
Answer field: number only, no words.

CCOC(=O)CCC(=O)O[C@H]1[C@H](O[C@@H]2[C@@H](C)[C@H](O[C@H]3C[C@@](C)(OC)[C@@H](O)[C@H](C)O3)[C@@H](C)C(=O)O[C@H](CC)[C@@](C)(O)[C@H](O)[C@@H](C)C(=O)[C@H](C)C[C@@]2(C)O)O[C@H](C)C[C@@H]1N(C)C : 0.963

GET /value?item= O=C1C=CC(=C(c2ccc(O)cc2)c2ccc(O)cc2)C=C1 &field=normalized growth returns 0.998

GET /value?item= CNC(C)[C@H](O)c1ccccc1 (stereo partly drawn) &field=normalized growth returns 1.04

GET /value?item= O=C(O)c1cc2ccccc2c(Cc2c(O)c(C(=O)O)cc3ccccc23)c1O &field=normalized growth returns 0.997

GET /value?item= CCN(CCO)CCCC(C)Nc1ccnc2cc(Cl)ccc12 (stereo not drawn) &field=normalized growth returns 1

###

Quick reference for normalized growth among some compounds
Assay: chemical genetic growth profiling, strain panel (AID 1159580)
Conditions: S. cerevisiae deletion strains, growth OD, locus YOR083W, strain WHI5, hits give low values
Out of some 5,500 compounds screened, about 2,000 (36%) were called active. Not shown: some 18% with an inconclusive outcome. The list shows a part of the results.

Here is how some compounds turned out for normalized growth.
CCOC(=O)C(=O)C1(C(=O)OCC)Oc2cc(OC)cc(OC)c2C(=O)C1c1ccccc1 (centres undefined) : 0.956 (inactive)
c1cncc(C2CCCCN2)c1 (centres undefined) : 1 (inactive)
CCOC(=O)C(Cc1ccc(O)cc1)NC(C)=O (centres undefined) : 1.03 (inactive)

Shift focus to the following entry.
GET /value?item= CC1=C(C/C=C(\C)CCC[C@H](C)CCC[C@H](C)CCCC(C)C)C(=O)c2ccccc2C1=O &field=normalized growth returns 0.992 (inactive)

###

Quick reference for normalized growth among some compounds
Assay: chemical genetic growth profiling, strain panel (AID 1159580)
Details: S. cerevisiae deletion strains, growth OD, locus YBR229C, strain ROT2, hits give low values
Screen size: about 5,500 compounds; about 2,000 (36%) were called active. About 18% were inconclusive and are not listed. Some of the results follow.
Answer field: number only, no words.

CCOC(=O)CSC(=S)NCc1ccc(C)cc1 : 0.866
CC(Oc1ccccc1)C(=O)N[C@@H]1C(=O)N2[C@@H]1SC(C)(C)[C@@H]2C(=O)O (stereo partly drawn) : 1.01
Cc1ccc(NC(=S)NNC(C)(C)C)cc1 : 0.963
CCOC(=O)C1CCN(C(=S)Nc2ccccc2C(F)(F)F)CC1 : 1
CC(=O)OCC(=O)[C@H]1CCC2C3CCC4=CC(=O)CC[C@]4(C)C3CC[C@@]21C (stereo partly drawn) : 0.969

GET /value?item= N=c1ccn2c(n1)O[C@@H]1C2O[C@H](CO)[C@H]1O (stereo partly drawn) &field=normalized growth returns 1

GET /value?item= COc1cc(/C=C2\NC(=O)NC2=O)ccc1O &field=normalized growth returns 0.965

GET /value?item= COc1cc(O)c(C(=O)/C=C/c2ccccc2)c(OC)c1 &field=normalized growth returns 0.942

###

Quick reference for normalized growth among some molecules
Assay: chemical genetic growth profiling, strain panel (AID 1159580)
Conditions: S. cerevisiae deletion strains, growth OD, locus YNL298W, strain CLA4 (second series), hits give low values
Hit rate of the full screen: of about 5,500 compounds, about 2,000 (36%) were called active. About 18% were inconclusive and are not listed. The list shows a part of the results.

Here is how some molecules turned out for normalized growth.
N#CCOc1ccc(Cl)cc1Cl : 1.02 (inactive)
CCOC(=O)C(=CNc1ccccc1N1CCOCC1)C(=O)OCC : 0.916 (inactive)
CCC(=O)Nc1cc(F)ccc1C : 1.01 (inactive)
c1ccc(N=Nc2ccc(Nc3ccccc3)cc2)cc1 : 0.79 (active)
CC12CCC3C(CCC4=CC(=O)CCC43CO)C1CCC2OC(=O)c1ccccc1 (centres undefined) : 1.05 (inactive)
CC(C)(C)c1cc(-c2csc(-c3ccc(Cl)cc3)n2)cc(C(C)(C)C)c1O : 1.04 (inactive)

GET /value?item= CC(C)(C)C(=O)Nc1ccc(F)cc1 &field=normalized growth returns 1.04 (inactive)

GET /value?item= N[C@@H](C(=O)O)c1ccccc1 &field=normalized growth returns 1.02 (inactive)

GET /value?item= O=C(CSc1nnnn1-c1ccccc1)NC1Cc2ccccc2C1 &field=normalized growth returns 1.01 (inactive)

###

Assay: chemical genetic growth profiling, strain panel (AID 1159580)
Conditions: S. cerevisiae deletion strains, growth OD, locus YBR009C, strain hhf1, hits give low values
Out of some 5,500 compounds screened, about 2,000 (36%) were called active. About 18% were inconclusive and are not listed. The list shows a part of the results.
Quick reference for normalized growth among some molecules
Answer field: number only, no words.

GET /value?item= O=C(O)c1cc2ccccc2[nH]1 &field=normalized growth returns 0.996

GET /value?item= COc1ccc2c(c1)O[C@@H]1COc3cc(OC)c(OC)cc3[C@@H]1C2=O &field=normalized growth returns 0.34

GET /value?item= CCCCCCNC(=O)n1cc(F)c(=O)[nH]c1=O &field=normalized growth returns 0.861

GET /value?item= O=C(O)c1c2ccccc2cc2ccccc12 &field=normalized growth returns 0.989

###

Assay: chemical genetic growth profiling, strain panel (AID 1159580);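 also: tested at 20 µM; growth read once vehicle control cultures reached saturation at 30 °C; 1 = growth at the plate median or of vehicle wells; lower values mean less growth of the strain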
Details: S. cerevisiae deletion strains, growth OD, locus YDR363W, strain ESC2, hits give low values
In all, about 5,500 compounds went through this assay and about 2,000 (36%) were called active. Inconclusive results (about 18%) are left out. This is one part of the list.
assay-readout: normalized growth
Answer field: number only, no words.

Here is how some compounds turned out for normalized growth.
CC(C)(O)C1C2OC(=O)C1C1(O)CC3OC34C(=O)OC2C14C (stereo unspecified) (tested in a mixture with another compound) : 0.969
O=C(Nc1cccc(C(=O)Nc2ccc(S(=O)(=O)O)c3cc(S(=O)(=O)O)cc(S(=O)(=O)O)c23)c1)Nc1cccc(C(=O)Nc2ccc(S(=O)(=O)O)c3cc(S(=O)(=O)O)cc(S(=O)(=O)O)c23)c1 : 1.02

GET /value?item= O=C(O)C1=CCCN(CCON=C(c2ccccc2)c2ccccc2)C1 &field=normalized growth returns 0.976

GET /value?item= CN1CCc2cc(Cl)c(O)cc2[C@@H](c2ccccc2)C1 &field=normalized growth returns 1.01

GET /value?item= CC(C)(C)c1onc(OCP(=O)(O)O)c1CC(N)C(=O)O (stereo unspecified) &field=normalized growth returns 1.02

GET /value?item= CN1CCc2cc(O)c(O)cc2C(c2ccccc2)C1 (stereo unspecified) &field=normalized growth returns 1.02

###

Test: chemical genetic growth profiling, strain panel (AID 1159580);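 also: tested at 20 µM; growth read once vehicle control cultures reached saturation at 30 °C; 1 = growth at the plate median or of vehicle wells; lower values mean less growth of the strain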
Settings: S. cerevisiae deletion strains, growth OD, locus YBR009C, strain hhf1, hits give low values
The campaign covered roughly 5,500 compounds. About 2,000 (36%) were called active. Roughly 18% stayed inconclusive and do not appear here. The list shows a part of the results.
Decision: normalized growth beneath 1 gives yes (1); normalized growth meeting or exceeding 1 gives no (0).

Reference set (5 entries):
CC1CC2C3CCC4=CC(=O)C=C[C@]4(C)[C@@]3(F)[C@@H](O)C[C@]2(C)[C@@]1(O)C(=O)CO (stereo not given in full) : no (0)
CC(NCCc1ccc(O)cc1)C(O)c1ccc(O)cc1 (stereo not given) : no (0)
CN1CCC(=C2c3ccccc3Sc3ccccc32)CC1 : no (0)
COC1=CC(=O)C[C@@H](C)[C@]12Oc1c(Cl)c(OC)cc(OC)c1C2=O : yes (1)
CCC(=O)O[C@H]1[C@H](O[C@@H]2[C@@H](C)[C@H](O[C@H]3C[C@@](C)(OC)[C@@H](O)[C@H](C)O3)[C@@H](C)C(=O)O[C@H](CC)[C@@](C)(O)[C@H](O)[C@@H](C)C(=O)[C@H](C)C[C@@]2(C)O)O[C@H](C)C[C@@H]1N(C)C : yes (1)

Input: Regarding NC(=O)C(c1ccccc1)(c1ccccc1)C1CCN(CCc2ccc3c(c2)CCO3)C1 (stereo not given) , kindly confirm whether its normalized growth is beneath 1.
Output: no (0)

###

Quick reference for normalized growth among some molecules
Experiment: chemical genetic growth profiling, strain panel (AID 1159580);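 also: tested at 20 µM; growth read once vehicle control cultures reached saturation at 30 °C; 1 = growth at the plate median or of vehicle wells; lower values mean less growth of the strain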
Conditions: S. cerevisiae deletion strains, growth OD, locus YDL035C, strain GPR1, hits give low values
Out of some 5,500 compounds screened, about 2,000 (36%) were called active. About 18% were inconclusive and are not listed. The list shows a part of the results.
Answer field: number only, no words.

Here is how some molecules turned out for normalized growth.
CCN(CC)CCNC(=O)c1cc(Br)c(N)cc1OC : 0.986
COc1ccc2c(c1)OCc1c-2oc2cc(OC)ccc12 : 0.955
CN1CCC(=C2c3ccccc3CC(=O)c3sccc32)CC1 : 1.02
CCC(=O)O[C@H]1[C@H](O[C@@H]2[C@@H](C)[C@H](O[C@H]3C[C@@](C)(OC)[C@@H](O)[C@H](C)O3)[C@@H](C)C(=O)O[C@H](CC)[C@@](C)(O)[C@H](O)[C@@H](C)C(=O)[C@H](C)C[C@@]2(C)O)O[C@H](C)C[C@@H]1N(C)C : 0.915

GET /value?item= CC1CC2C3CC(F)C4=CC(=O)C=CC4(C)C3(F)C(O)CC2(C)C1(O)C(=O)CO (stereo unspecified) &field=normalized growth returns 1.05

GET /value?item= c1ccc(N=Nc2ccccc2)cc1 &field=normalized growth returns 0.981

GET /value?item= COc1ccc2c(c1OC)C(=O)O[C@@H]2[C@H]1c2cc3c(cc2CCN1C)OCO3 &field=normalized growth returns 1.03

GET /value?item= COc1ccc2c(C)cc(=O)oc2c1 &field=normalized growth returns 1.02

GET /value?item= N=c1ccn2c(n1)O[C@@H]1C2O[C@H](CO)[C@H]1O (stereo partly specified) &field=normalized growth returns 1.01

GET /value?item= CC1/C(=N\O)C[C@@H]2C[C@H]1C2(C)C (stereo partly specified) &field=normalized growth returns 0.993

GET /value?item= CN1CCC(=C2c3ccccc3Sc3ccccc32)CC1 &field=normalized growth returns 0.951

Data provenance: PubChem BioAssay AID1159580
